Data origin, for the record: patent US7759373B2

# Test system: rhythmic bladder contractions induced by substance P
# run description: Inhibitory effect on the rhythmic bladder contractions induced by substance P in anesthetized rats
# Assay type: in vivo, rat
# stated conditions: time during which frequency of rhythmic contraction was completely inhibited, 0.25 mg/kg of the compound, substance P infusion
readout type: 100% inhibition time range

Use the examples below as a reference point.
[[record]]
compound = "CSc1ccc(-c2nc(CC(=O)[O-])c(-c3ccsc3)o2)cn1.[Na+] [Preparation Example 365]"
result = "B (A≧20>B≧10>C (minute))"

[[record]]
compound = "Cn1c(-c2nc(CC(=O)O)c(-c3ccc(Cl)s3)o2)cc2ccccc21 [Preparation Example 472]"
result = "A (A≧20>B≧10>C (minute))"

[[record]]
compound = "CCc1nc(-c2cccc(Cl)c2)[nH]c1-c1cccnc1 [Preparation example 13]"
result = "C (A≧20>B≧10>C (minute))"

[[record]]
compound = "CCCc1nc(-c2ccc(F)cc2)[nH]c1-c1ccc(N(C)C)cc1 [Preparation example 90]"
result = "B (A≧20>B≧10>C (minute))"

[[record]]
compound = "CN(C)c1ncc(-c2nc(CC(=O)O)c(-c3ccc(Cl)s3)o2)cn1 [Preparation Example 362]"
result = "A (A≧20>B≧10>C (minute))"


Jot down 100% inhibition time range (rhythmic bladder contractions induced by substance P) of CC(C)c1ccc(-c2nc(CC(=O)O)c(-c3cccs3)o2)cc1 [Preparation Example 291] .
C (A≧20>B≧10>C (minute))

Jot down 100% inhibition time range (rhythmic bladder contractions induced by substance P) of CN1CCc2cc(-c3nc(CC(=O)O)c(-c4ccc(Cl)s4)o3)ccc21 [Preparation Example 453] .
C (A≧20>B≧10>C (minute))
